meta.source: patent US9796711B2

Attribute: pEC50
Measured Target: ΔF508-CFTR (Homo sapiens, UniProt P13569, DEL508-508)
Construct: host or cells: CFBE41o-, doxycycline-inducible
Sequence (P13569 with tags, fused parts or gaps DEL508-508): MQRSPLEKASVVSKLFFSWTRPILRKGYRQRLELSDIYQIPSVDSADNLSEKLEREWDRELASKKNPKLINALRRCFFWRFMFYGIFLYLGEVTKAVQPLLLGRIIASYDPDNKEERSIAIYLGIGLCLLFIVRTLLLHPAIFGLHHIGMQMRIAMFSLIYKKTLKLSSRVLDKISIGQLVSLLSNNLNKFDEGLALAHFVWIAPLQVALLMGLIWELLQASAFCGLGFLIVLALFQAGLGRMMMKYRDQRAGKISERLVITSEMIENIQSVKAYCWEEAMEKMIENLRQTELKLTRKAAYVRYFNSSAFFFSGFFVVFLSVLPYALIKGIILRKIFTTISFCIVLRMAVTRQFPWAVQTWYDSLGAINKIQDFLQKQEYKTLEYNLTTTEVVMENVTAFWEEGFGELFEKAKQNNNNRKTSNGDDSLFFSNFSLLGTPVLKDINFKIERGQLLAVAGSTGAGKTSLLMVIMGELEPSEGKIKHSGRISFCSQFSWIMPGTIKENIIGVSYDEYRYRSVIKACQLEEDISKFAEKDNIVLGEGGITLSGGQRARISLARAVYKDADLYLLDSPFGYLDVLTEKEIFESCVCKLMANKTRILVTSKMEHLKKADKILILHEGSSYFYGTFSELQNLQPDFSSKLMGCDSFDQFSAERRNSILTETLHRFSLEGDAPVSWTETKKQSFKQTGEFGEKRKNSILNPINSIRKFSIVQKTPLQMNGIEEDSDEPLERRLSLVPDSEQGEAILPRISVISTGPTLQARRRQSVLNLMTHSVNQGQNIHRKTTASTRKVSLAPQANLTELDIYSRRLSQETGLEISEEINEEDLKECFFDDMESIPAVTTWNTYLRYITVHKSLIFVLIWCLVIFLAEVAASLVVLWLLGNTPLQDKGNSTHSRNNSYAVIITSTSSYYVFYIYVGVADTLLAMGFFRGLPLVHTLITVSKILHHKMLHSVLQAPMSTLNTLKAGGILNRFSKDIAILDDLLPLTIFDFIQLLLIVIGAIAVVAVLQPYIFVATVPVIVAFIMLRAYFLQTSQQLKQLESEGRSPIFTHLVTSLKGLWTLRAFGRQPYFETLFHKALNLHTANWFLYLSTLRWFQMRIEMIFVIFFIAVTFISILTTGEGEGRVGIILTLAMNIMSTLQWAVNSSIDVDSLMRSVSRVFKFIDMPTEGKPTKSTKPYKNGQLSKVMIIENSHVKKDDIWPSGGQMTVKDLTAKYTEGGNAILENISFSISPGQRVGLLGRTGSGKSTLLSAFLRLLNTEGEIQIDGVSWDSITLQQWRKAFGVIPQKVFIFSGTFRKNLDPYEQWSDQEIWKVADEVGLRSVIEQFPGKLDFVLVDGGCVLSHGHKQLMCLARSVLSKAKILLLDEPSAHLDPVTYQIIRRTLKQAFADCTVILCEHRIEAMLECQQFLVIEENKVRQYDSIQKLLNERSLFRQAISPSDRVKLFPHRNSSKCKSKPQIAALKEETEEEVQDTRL
Procedure Details: CFTR cell surface levels using HRP-tagged ΔF508-CFTR expressing CFBE cells, intrinsic corrector capacity
Type: cell-based
Condition Label: HRP-tagged ΔF508-CFTR expressing CFBE cells; intrinsic corrector capacity (no co-corrector); 33° C., 20 hours; read-out: EC50
pEC50: −log10 of the molar value.
Outcome Measure: pEC50

> print(dat)
                                   compound  limit.sign  value.reported
1  COC1CN(C(=O)COc2cc(C(=O)O)nc3c2c(C2CCC2)nn3-c2ccccc2)C1 [compound 481]           =            5.48
2  O=C(O)c1cc(N2CCC3(CCCO3)C2)c2c(C3CCC3)nn(-c3ccccc3)c2n1 (stereo not shown) [compound 518]           =            6.43
3  O=C(O)c1cc(N2CCC(CCN3CCCC3)CC2)c2c(C3CCC3)nn(-c3ccccc3)c2n1 [compound 574]           =            6.32
4  CN(C)CC(CN(C)C)Oc1cc(C(=O)O)nc2c1c(C1CCC1)nn2-c1ccccc1 [compound 638]           <            5.00

---

Here the recorded % Activation is given for each entry.
Measured Target: ΔF508-CFTR (Homo sapiens, UniProt P13569, DEL508-508)
Construct: host or cells: CFBE41o-, doxycycline-inducible
Procedure Details: CFTR cell surface levels using HRP-tagged ΔF508-CFTR expressing CFBE cells, intrinsic corrector capacity
Type: cell-based
Condition Label: HRP-tagged ΔF508-CFTR expressing CFBE cells; intrinsic corrector capacity (no co-corrector); 33° C., 20 hours
Source text: Measuring CFTR Cell Surface Levels Using HRP-Tagged AF508-CFTR Expressing CFBE Cells The HRP-tagged AF508-CFTR cell assay measures the expression of CFTR-ΔF508 at the plasma membrane. […] When HRP-tagged AF508-CFTR is present at the plasma membrane, the HRP enzyme activity can be measured. The amount of CFTR-ΔF508 that can be rescued to the plasma membrane is correlated with the amount of functional enzyme that can be measured. […]
Outcome Measure: % Activation (%)

> print(dat)
                                    compound  scale.unit  value.reported
 1  O=CN1CCCN(CC2CCN(c3cc(C(=O)O)nc4c3c(C3CCC3)nn4-c3ccccc3)CC2)CC1 [compound 839]           %           275.7
 2  CCOCCN1CCN(c2cc(C(=O)O)nc3c2c(C2CCC2)nn3-c2ccccc2)CC1 [compound 566]           %           150.5
 3  O=C(O)c1cc(N2CCN(CC3OCCO3)CC2)c2c(C3CCC3)nn(-c3ccccc3)c2n1 [compound 684]           %           230.2
 4  CC(C)c1nn(-c2ccc(F)cc2)c2nc(C(=O)O)cc(N3CC(N4CCOCC4)C3)c12 [compound 765]           %           45.48
 5  O=C(O)c1cc(N2CCC(CN3CC(OCC(F)F)C3)CC2)c2c(C3CCC3)nn(-c3ccccc3)c2n1 [compound 835]           %           291.5
 6  O=C1CCC[C@H]2CN(c3cc(C(=O)O)nc4c3c(C3CCC3)nn4-c3ccccc3)C[C@H]2N1 [compound 505]           %          -6.616
 7  COCCN1CCN(C2CCN(c3cc(C(=O)O)nc4c3c(C3CCC3)nn4-c3ccccc3)CC2)CC1 [compound 694]           %           177.4
 8  CN(C)CC(C)(C)COc1cc(C(=O)O)nc2c1c(C1CCC1)nn2-c1ccccc1 [compound 636]           %           184.1
 9  CC(C)Oc1nn(C2CCCCC2)c2nc(C(=O)O)cc(-c3ccc(CN4CCN(C5CC5)CC4)cc3)c12 [compound 884]           %           140.6
10  O=C(O)c1cc(OC(CN2CCOCC2)CN2CCOCC2)c2c(C3CCC3)nn(-c3ccccc3)c2n1 [compound 641]           %           65.07
11  O=C(O)c1cc(OCC2CCC(F)(F)CC2)c2c(C3CCC3)nn(-c3ccccc3)c2n1 [compound 616]           %           144.2
12  CC(C)c1nn(-c2ccc(F)cc2)c2nc(C(=O)O)cc(N3CCC[C@@H](O)C3)c12 [compound 783]           %           95.05
13  O=C(O)c1cc(NCC2CCOCC2)c2c(C3CCC3)nn(-c3ccccc3)c2n1 [compound 590]           %           141.3
14  CC(C)(C)OC(=O)N1CC[C@@H]2CN(c3cc(C(=O)O)nc4c3c(C3CCC3)nn4-c3ccccc3)CC[C@@H]21 (racemic) [compound 549]           %           302.2
15  CC1(F)CN(c2cc(C(=O)O)nc3c2c(C2CCC2)nn3-c2ccccc2)C1 [compound 451]           %          71.425
16  O=C(O)c1cc(N2CCC(F)(F)CC2)c2c(C3CCC3)nn(-c3ccccc3)c2n1 [compound 594]           %           75.66
17  O=C(O)c1cc(N2CCC(N3CCOCC3)CC2)c2c(C3CCC3)nn(-c3cc(F)cc(F)c3)c2n1 [compound 905]           %           278.8
18  COCCOC1CCN(c2cc(C(=O)O)nc3c2c(C2CCC2)nn3-c2ccccc2)CC1 [compound 685]           %           260.5
19  COCCOCC1(F)CCN(c2cc(C(=O)O)nc3c2c(C2CCC2)nn3-c2ccccc2)CC1 [compound 459]           %          152.05
20  COCCCN1CCN(c2cc(C(=O)O)nc3c2c(C(C)C)nn3-c2ccc(F)cc2)CC1 [compound 776]           %           113.2
21  O=C(O)c1cc(N2CC3(CCOC3)C2)c2c(C3CCC3)nn(-c3ccccc3)c2n1 [compound 534]           %             111
22  CC(=O)N1CCN(c2cc(C(=O)O)nc3c2c(C(C)C)nn3-c2ccc(F)cc2)CC1 [compound 771]           %           94.91
23  CC(C)c1nn(-c2ccc(F)cc2)c2nc(C(=O)O)cc(N3CCC(C(C)N4CCCC4)CC3)c12 (stereo not shown) [compound 789]           %          257.05
24  COC1CCN(C2CCN(c3cc(C(=O)O)nc4c3c(C3CCC3)nn4-c3ccc(F)cc3)CC2)C1 (stereo not shown) [compound 848]           %             249
25  O=C(O)c1cc(OCCC2CC(F)(F)C2)c2c(C3CCC3)nn(-c3ccccc3)c2n1 [compound 477]           %           97.78
26  CC(C)Oc1nn(C2CCCCC2)c2nc(C(=O)O)cc(-c3ccc(N4CCN(C(C)C)CC4)cc3)c12 [compound 863]           %          156.35
27  CS(=O)(=O)N1CCC(F)(COc2cc(C(=O)O)nc3c2c(C2CCC2)nn3-c2ccccc2)CC1 [compound 626]           %           223.1
28  O=C(O)c1cc(N2CCC(N3CCOCC3)CC2)c2c(C3CCC3)nn(-c3ccnc(OCc4ccccc4)c3)c2n1 [compound 856]           %           230.7
29  O=C(O)c1cc(N2CCC(N3CCOCC3)CC2)c2c(C3CCC3)nn(-c3ccnc(OC(F)F)c3)c2n1 [compound 889]           %           229.2
30  COC1CN(C2CCN(c3cc(C(=O)O)nc4c3c(C3CCC3)nn4-c3ccc(F)cc3)CC2)C1 [compound 873]           %           139.8
31  CC(C)Oc1nn(C2CCCCC2)c2nc(C(=O)O)cc(-c3ccc(N4CCN(C)CC4)cc3)c12 [compound 883]           %           160.6
